Record form. Attribute: Max MFI. Fill in for each entry.
Target: T1, cynomolgus CCR8 (cynomolgus, UniProt G7NYJ2 1-355)
T1 construct: whole, on cells
T1 sequence (G7NYJ2 entry or part of it): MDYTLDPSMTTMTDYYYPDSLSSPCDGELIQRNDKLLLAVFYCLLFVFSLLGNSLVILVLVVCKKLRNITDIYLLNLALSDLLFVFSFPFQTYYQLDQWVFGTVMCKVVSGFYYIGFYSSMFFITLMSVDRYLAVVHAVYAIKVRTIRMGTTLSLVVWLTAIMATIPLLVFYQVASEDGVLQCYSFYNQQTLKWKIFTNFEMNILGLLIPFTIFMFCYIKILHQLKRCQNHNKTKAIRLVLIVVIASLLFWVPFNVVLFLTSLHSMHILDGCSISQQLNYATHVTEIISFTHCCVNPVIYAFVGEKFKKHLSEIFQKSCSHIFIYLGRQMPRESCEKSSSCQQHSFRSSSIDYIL
Assay: FACS on HEK293-cynomolgus CCR8 cells
Numbers only, in MFI.

Answered examples (2):
INSERT INTO results (binder, measurementkind, readoutnumber) VALUES
  ('149F2C10_N28S (antibody, V domains shown, NG site removed variant of 149F2C10) VH: EVQLVESGGGLVQPKGSLKLSCAASGFTFNTYAMNWVRQAPGKGLEWVARIRSKSNFYATYYADSVKDRFTISRDDSQDMLYLQMNILKTEDTAIYYCVRGRDYGSSYAMDYWGQGTSVTVSS VL: DIVMTQAAPSVPVTPGESVSISCRSSKSLLHSSGNTYLYWFLQRPGQSPQLLIYRMSNLASGVPDRFSGSGSGTAFTLRISRVEAEDVGVYYCMQHLEYPLTFGAGTKLELK', 'Max MFI', 2020),
  ('149F2C10_G29I (antibody, V domains shown, NG site removed variant of 149F2C10) VH: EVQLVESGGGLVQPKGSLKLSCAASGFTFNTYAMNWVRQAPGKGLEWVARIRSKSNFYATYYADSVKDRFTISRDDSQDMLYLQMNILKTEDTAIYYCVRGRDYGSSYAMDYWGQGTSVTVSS VL: DIVMTQAAPSVPVTPGESVSISCRSSKSLLHSNINTYLYWFLQRPGQSPQLLIYRMSNLASGVPDRFSGSGSGTAFTLRISRVEAEDVGVYYCMQHLEYPLTFGAGTKLELK', 'Max MFI', 4640);

Read the next record carefully.
Quote Max MFI reported for 149F2C10-CHO (antibody, V domains shown, The suffix -CHO is not explained) VH: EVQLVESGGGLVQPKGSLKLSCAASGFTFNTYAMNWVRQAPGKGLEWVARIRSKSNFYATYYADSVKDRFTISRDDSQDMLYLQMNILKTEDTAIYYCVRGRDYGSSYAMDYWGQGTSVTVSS VL: DIVMTQAAPSVPVTPGESVSISCRSSKSLLHSNGNTYLYWFLQRPGQSPQLLIYRMSNLASGVPDRFSGSGSGTAFTLRISRVEAEDVGVYYCMQHLEYPLTFGAGTKLELK please.
3310
